Data origin, for the record: the RNAGym collection of RNA variant scans (doi:10.1073/pnas.2313332121)

Recorded polymerase ribozyme fitness (log ratio) for the following variants
B1: TPR 5TU (parent)
chain: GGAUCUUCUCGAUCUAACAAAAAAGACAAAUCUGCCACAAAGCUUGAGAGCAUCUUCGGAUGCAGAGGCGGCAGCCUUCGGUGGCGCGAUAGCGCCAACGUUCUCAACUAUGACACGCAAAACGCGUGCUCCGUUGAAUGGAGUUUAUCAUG

variants of: B1; assay: polymerase ribozyme fitness, log enrichment relative to wild type (log ratio); higher = more active; in vitro selection for triplet polymerase activity
This sample holds only a part of the variants without activity.
Respond numerically, and do not add a unit to the figure.

// polymerase ribozyme fitness (log ratio) value for U55G G83C U135A : -1.97

// polymerase ribozyme fitness (log ratio) value for C57U U135G : -4.05

// polymerase ribozyme fitness (log ratio) value for A3U U31G C36U C96A : -2.99

// polymerase ribozyme fitness (log ratio) value for U55A A91G U134A : -4.01

// polymerase ribozyme fitness (log ratio) value for U6G U31G U61A C95A G136A : -1.38

// polymerase ribozyme fitness (log ratio) value for C18U U56A G83A U102A U144A : -3.72

// polymerase ribozyme fitness (log ratio) value for U31C C54U G71U C96U : -3.79

// polymerase ribozyme fitness (log ratio) value for A30G C95U : -3.14

// polymerase ribozyme fitness (log ratio) value for U13C C14G C43G A91G A106U U109G A138G : -4.06

// polymerase ribozyme fitness (log ratio) value for C93A A113U : -4.07

// polymerase ribozyme fitness (log ratio) value for G84A U134G : -2.31

// polymerase ribozyme fitness (log ratio) value for C87U U145A : 0.0527

// polymerase ribozyme fitness (log ratio) value for C36U C76U C85G : -2.42

// polymerase ribozyme fitness (log ratio) value for G84A U127C U139G A142C : -3.93

// polymerase ribozyme fitness (log ratio) value for A41C G152U : -2.69

// polymerase ribozyme fitness (log ratio) value for A22C C57A A106G G141C : -0.358

// polymerase ribozyme fitness (log ratio) value for U55A C63A : -0.431

// polymerase ribozyme fitness (log ratio) value for G48A A60G G84U : -1.73
